Below, each entry is listed alongside its reported protein stability index.
B1: FAM189A2 (parent)
chain: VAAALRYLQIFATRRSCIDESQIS

Variants of: B1
Test: protein stability index of a GFP-peptide fusion (GPS, HEK-293T) (PSI 1-6); higher = more stable;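 note: lentivirally expressed fusions sorted by FACS into six bins by GFP to DsRed ratio, PSI derived from sequencing read proportions per bin multiplied by bin number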
Conditions: c terminus: a fixed tail appended
Answer with the value's number alone.

VAAALRYLEIFATRRSCIDESQIS [Q9E] ... 3.07
VAAALRYLQIFATPRSCIDESQIS [R14P] ... 2.78
VAAATRYLQIFATRRSCIDESQIS [L5T] ... 1.66
VAAALRYLQIFATRRSCIDESQWS [I23W] ... 1.87
VAAAQRYLQIFATRRSCIDESQIS [L5Q] ... 2.12

Now look at this one.
Qu. Report protein stability index for VAAALRYAQIFATRRSCIDESQIS [L8A]
Ans. 2.36
